Assay: HoxA9-arrested leukemia cell differentiation promoters – flow cytometry, MLPCN library, primary screen (AID 624256);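 as to normalized GFP-positive differentiation: cells exposed to compound for four days before flow analysis; 0% = DMSO wells and 100% = fulvestrant positive control at 5 µM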
Reported conditions: ER-HoxA9 myeloid progenitors, lysozyme-GFP differentiation, at 10 µM; hits give high values
Screen size: about 360,000 compounds; about 3,700 (1%) were called active. Roughly 2% stayed inconclusive and do not appear here. The sample holds actives, similar compounds and a random draw of the others, so the mix is not that of the screen.
Observation type: normalized GFP-positive differentiation

> print(dat)
                                    compound                         observation.type  experimental.result
 1  CN1/C(=c2/s/c(=C3/C(=O)N(c4ccccc4)NC3=Nc3ccccc3)n(C)c2=O)C(C)(C)c2ccccc21  normalized GFP-positive differentiation        200% (active)
 2  Cc1ccc(NS(=O)(=O)c2cc3c(cc2Br)NC(=O)CO3)cc1C  normalized GFP-positive differentiation             inactive
 3  CC(C)OC(=O)CC(=O)CC(O)c1cccc([N+](=O)[O-])c1 (stereo not given)  normalized GFP-positive differentiation             inactive
 4    O=C(N/N=C/c1ccccc1O)/C(=C/c1ccccc1)CCO  normalized GFP-positive differentiation       31.5% (active)
 5  CCc1nc2c(OCc3ccccc3)cccn2c1N(C)C(=O)c1ccco1  normalized GFP-positive differentiation             inactive
 6      O=C(CCC(=O)Nc1ccccc1)N/N=C/c1ccccc1F  normalized GFP-positive differentiation             inactive
 7  CN1C[C@@H](CO)O[C@@H](n2cnc3c(N4CCN(CCO)CC4)ncnc32)C1  normalized GFP-positive differentiation             inactive
 8  CCc1nc2c(OCCOc3ccccc3)cccn2c1N(C)C(=O)c1cccs1  normalized GFP-positive differentiation             inactive
 9  Cn1cc(C2OC(=O)c3ccccc32)c2ccccc21 (stereo not given)  normalized GFP-positive differentiation             inactive
10  Cn1cnc(S(=O)(=O)N2C[C@@H](O)COC[C@@H]3O[C@H](CC(=O)NC4CCC4)CC[C@H]32)c1  normalized GFP-positive differentiation             inactive
11  CC1(C)OC(=O)C2=C(C[C@@H](C3CCCCC3)O[C@@H]2c2ccc(Cl)cc2)O1  normalized GFP-positive differentiation             inactive
12  CC(C)C[C@H]1CNC(=S)N1C[C@H]1CCCN1C[C@H](Cc1ccc(O)cc1)N1C[C@H](Cc2ccc(O)cc2)N(CC2CCCCC2)C1=S  normalized GFP-positive differentiation             inactive
13  Cc1nn(C)cc1N1C(=O)c2cccc3c(N)ccc(c23)C1=O  normalized GFP-positive differentiation        289% (active)
14  Cc1ccc(S(=O)(=O)N2CC[C@H]3[C@@H](C2)C(=O)C[C@@H](c2ccccc2)N3S(=O)(=O)c2ccc(C)cc2)cc1  normalized GFP-positive differentiation             inactive
15  COc1ccc(N2CCN(c3ccc([N+](=O)[O-])nc3)CC2)cc1  normalized GFP-positive differentiation             inactive
16           CN1C(=O)c2cccc3c(N)ccc(c23)C1=O  normalized GFP-positive differentiation       96.2% (active)
17               O=C(N/N=C/c1ccccc1O)C1CCCC1  normalized GFP-positive differentiation             inactive
18  O=C(NCc1ccc(F)cc1F)[C@@H]1CCCN1C(=O)[C@@H]1CCCN1C(=O)c1cccc(Cl)c1  normalized GFP-positive differentiation             inactive
19  CCCCCCCCN1C(=O)[C@H](CC(=O)NCC23CC4CC(CC(C4)C2)C3)C[C@@]2(C(=O)OC)CCCCC=C12  normalized GFP-positive differentiation             inactive
20  CCCCCCc1cc2cc(-c3nnc(-c4ccccc4)o3)c(=O)oc2cc1O  normalized GFP-positive differentiation        197% (active)

----------
Assay: HoxA9-arrested leukemia cell differentiation promoters – flow cytometry, MLPCN library, primary screen (AID 624256)
Reported conditions: ER-HoxA9 myeloid progenitors, lysozyme-GFP differentiation, at 10 µM
About 3,700 (1%) of roughly 360,000 compounds were called active. Not shown: some 2% with an inconclusive outcome.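 How the source made its calls: active means normalized GFP-positive differentiation at or above the plate's own cutoff, the solvent-only control mean plus 3 SD; inconclusive means no clear call, values can overlap the other calls; inactive means the rest.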 Many of the other results were omitted from the sample, so actives are more common in it than they were.
Outcome codes: active, inactive

> print(dat)
                                    molecule       cat
 1  CC1CCc2sc(C(=O)NCC(c3ccco3)N3CCCCC3)cc2C1 (stereo unspecified)  inactive
 2  O=C(NCc1ccccc1Cl)C1CCCN1S(=O)(=O)c1ccc(F)cc1 (stereo unspecified)  inactive
 3        COc1cccc(OC)c1C(=O)NC(=S)NCc1ccco1  inactive
 4             O=C(O)Cc1ccc(NCc2ccccc2Cl)cc1  inactive
 5  CC1Cc2ccccc2N1S(=O)(=O)c1cccc(C(=O)NCC(c2ccco2)N2CCCC2)c1 (stereo unspecified)    active
 6  O=C(NNC(=S)NCc1ccco1)C(c1ccccc1)c1ccccc1    active
 7  COc1ccc(-c2nc3ccc(Br)cn3c2Cc2ccc(C)cc2)cc1OC  inactive
 8         COC(=O)Cc1ccc(NC(=S)NCc2ccco2)cc1  inactive
 9  CCC1CCCCN1S(=O)(=O)Cc1ccccc1Cl (stereo unspecified)    active
10  O=C1OCCOC2CCCc3oc(-c4ccccc4)c1c32 (stereo unspecified)  inactive
11  O=C(Nc1ccc(F)cc1)C(CCc1ccccc1)N1CCN(CC(=O)N2CCCC2)CC1 (stereo unspecified)  inactive

----------
Assay: HoxA9-arrested leukemia cell differentiation promoters – flow cytometry, MLPCN library, primary screen (AID 624256)
Reported conditions: ER-HoxA9 myeloid progenitors, lysozyme-GFP differentiation, at 10 µM
Among all 360,000 compounds or so, about 3,700 (1%) were called active. About 2% were inconclusive and are not listed.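 Rule for the calls: active = normalized GFP-positive differentiation at or above the plate's own cutoff, the solvent-only control mean plus 3 SD; inconclusive = no clear call, values can overlap the other calls; inactive = the rest.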 Only a selection was taken, and actives are over-represented in it overall.
Outcome codes: 1 (yes) (active), 0 (no) (inactive)

> print(dat)
                                    molecule      cat
 1     CC(C)OC(=O)c1ccc(NCc2cc(O)ccc2O)cc1Cl  1 (yes)
 2  CCc1noc(C)c1C(=O)N1CCCC(N2CCN(c3ccc(F)cc3)CC2)C1 (stereo not given)  1 (yes)
 3  CCCCN(C=O)c1c(CC)nc2c(OCCC3CCCCC3)cccn12   0 (no)
 4  CC(=O)Nc1cccc(OCC(=O)/C=C2\N(C)c3ccccc3C2(C)C)c1  1 (yes)
 5  O=c1nc(NO)ccn1C1CCCO1 (stereo not given)   0 (no)
 6  O=S1(=O)CC(N2CCN(CCO)CC2)CN1C1CCCC1 (stereo not given)   0 (no)
 7  COc1ccc(NC(=O)Cn2nnc(C(=O)NCCc3ccc(OC)c(OC)c3)c2N)cc1   0 (no)
 8  O=C(CCC(=O)c1ccccc1)NCc1cccc(C(F)(F)F)c1   0 (no)
 9  Cc1cc(C)cc(OCC(=O)NNC(=O)c2cc3ccccc3oc2=O)c1   0 (no)
10  O=C(NC1C2CC3CC(C2)CC1C3)c1ccc(N2CCNCC2)c([N+](=O)[O-])c1 (stereo not given)  1 (yes)
11  CC(OC(=O)c1ccc(Cl)cc1O)C(=O)NCCC1=CCCCC1 (stereo not given)   0 (no)
12  CC(=O)C1=CCC(c2ccccc2)N(S(=O)(=O)c2ccc(C)cc2)C1 (stereo not given)   0 (no)
13  Nc1ncnc2c1ncn2[C@@H]1O[C@H](C(=O)N2CCCN(Cc3ccccc3F)CC2)[C@@H](O)[C@H]1O   0 (no)
14      O=C(C(=O)N1CCC(c2ccccc2)CC1)c1ccccc1   0 (no)
15  COC(=O)Cc1c(-c2[nH]c3ccccc3c2CC(=O)OC)[nH]c2ccccc12  1 (yes)
16     Cc1ccc(-c2nc(C#N)c(NCCCn3ccnc3)o2)cc1  1 (yes)
17      CCOC(=O)c1cc2cc(OC)ccc2n1C1CCN(C)CC1   0 (no)
18  CCOc1ccc(CCN2C(=S)N([C@@H](CC(C)C)CN3CCC[C@@H]3CN3C(=S)NC[C@@H]3Cc3ccc(O)cc3)C[C@@H]2Cc2ccc(O)cc2)cc1   0 (no)
19  COc1ccc(CNC(=O)c2nnn(CC(=O)Nc3cc(C)cc(C)c3)c2N)cc1   0 (no)
20           COC(=O)c1ccc(NCc2cc(O)ccc2O)cc1   0 (no)
21  CCOc1ccc(Cn2nnc(C(=O)Nc3ccc(OC)cc3OC)c2N)cc1  1 (yes)
22  CCOC(=O)C1CCCN(C(=O)c2cccc3ccccc23)CC1 (stereo not given)   0 (no)
23  Cc1cccc(-n2c(SCC(=O)Nc3cccc(S(=O)(=O)NC4=NCCCCC4)c3)nc3ccccc3c2=O)c1C  1 (yes)
24      Cc1ccc2c(Cl)c(C(=O)NCCCn3ccnc3)sc2c1   0 (no)
25           CC(C)CNC(=O)COC(=O)/C=C/c1ccco1   0 (no)
26  CNc1nc(=O)n(C2CCCO2)cc1C (stereo not given)  1 (yes)
27  CC(C)CNC(=O)COC(=O)/C=C/c1ccccc1[N+](=O)[O-]  1 (yes)
28  Cc1nc2c(OCc3ccc(Cl)cc3)cccn2c1N(C)Cc1cccs1   0 (no)
29              CC(=O)Nc1cncc(-c2ccccc2CO)n1   0 (no)
30  CN(Cc1ccccc1F)c1cc2c(c3c1ccn3C)C1CCC2O1 (stereo not given)   0 (no)
31  O=S1(=O)C[C@@H](N2CCN(CCO)CC2)[C@H](COCc2ccccc2)N1   0 (no)
32  CCOC(=O)[C@]12CCCC=C1N(CCC1=CCCCC1)C(=O)[C@H](CC(=O)N1CCSCC1)C2   0 (no)
33         O=C(Cc1cccs1)NCc1cccc(C(F)(F)F)c1  1 (yes)
34              Cc1cccc(OCC(=O)Nc2ccccc2F)c1   0 (no)
35    Cc1c(C(=O)NCC2CC2)sc(=O)n1Cc1cccc(F)c1   0 (no)
36  O=c1c(F)cn(C2CCCO2)c(=O)n1Cc1ccccc1Cl (stereo not given)   0 (no)
37          CCCOC(=O)Cc1c(O)c2ccccc2[nH]c1=O   0 (no)
38    O=C(COC(=O)c1ccc(O)cc1O)NC(=O)c1ccccc1   0 (no)
39  CC1=C(C(N)=O)C(c2ccc(F)cc2)n2nc(CCCO)nc2N1 (stereo not given)   0 (no)
40  O=C(NNc1c2ccccc2nc2ccccc12)c1cc2ccccc2cc1O  1 (yes)
41         CCN(CC)c1ccc2cc(C(=O)O)c(=O)oc2c1  1 (yes)
42  OC(c1ccccc1)(c1ccccc1)C1CCN(CCCOc2ccccc2)CC1   0 (no)
43  CCOC(=O)C(C(=O)OCC)C(C#N)c1ccccc1 (stereo not given)  1 (yes)
44  C=CCC[C@H](CCCCC)OC(=O)/C=C/[C@H](O)[C@@H](O)C[C@@H](O)CC=C   0 (no)
45    O=C(Cc1c(O)c2ccccc2[nH]c1=O)NCc1ccccc1   0 (no)
